Assay: 8-day repeat-dose study, tolerability (blood chemistry, hematology, adverse events) in tumor-bearing dogs
Type: in vivo, dog
Conditions: Dog 3; Post: 30 min after last injection on day 8; 10 mg s.c. once daily for 8 days
Where a SMILES comes first, the peptide text is derived from it. [ ]: non-standard residue; d: D form. Hyp = O=C(O)[C@@H]1C[C@@H](O)CN1
observed.property: Chloride (mmol/L)

compound="CC(C)[C@@H]1NC(=O)[C@@H]2C[C@@H](O)CN2C(=O)[C@H]([C@@H](C)O)NC(=O)[C@H](CCCCN)NC(=O)[C@H](CCC(=O)O)NC(=O)[C@H](CC(N)=O)NC(=O)CNC(=O)[C@@H]2C[C@@H](O)CN2C(=O)[C@H](CC(N)=O)NC1=O [AFPep] (cyclo(EKT[Hyp]VN[Hyp]GN))" result_value=108
